The measurements presented in this section are drawn from patent US8648112B2.

# Tested on: PC3 prostate cancer cell line
# Assay notes: Antiproliferative cell assay (CellTiter-Glo), PC3
# Type: cell-based, human
# Study conditions: 48 h exposure, read-out: IC50 against prostate cancer cell line PC3
# Experimental: Cell Culture Materials. The 22Rv1, DU145, LNCaP and PC3 prostate cancer cell lines were obtained from American Type Culture Collection (ATCC, Rockville, Md.). The LNCaP-AR and Hi-Myc cell lines were a kind donation by Dr. C. […] Proliferation was measured utilizing the CellTiter-Glo® Luminescent Cell Viability Assay (Technical Bulletin #288, Promega Corp., Madison, Wis.). When added to cells, the assay reagent produces luminescence in the presence of ATP from viable cells. […]
Metric: IC50 (µM)

# Given smiles, Metric, Value
records = [
    ("O=C(O)c1cc(O)c(O)c(O)c1-c1c(O)c(O)c2oc(=O)c3c(-c4c(C(=O)O)cc(O)c(O)c4O)c(O)c(O)c4oc(=O)c1c2c43", "IC50", 83.6),
]

* * *

Overview of recorded log10 IC50 for various compounds
# Tested on: Hi-Myc prostate cancer cell line
# Assay notes: Antiproliferative cell assay (CellTiter-Glo), Hi-Myc
# Assay type: cell-based
# Study conditions: Hi-Myc (mouse), 48 h exposure, read-out: IC50 against prostate cancer cell line HiMyc
Metric: log10 IC50 (log10 of the value in µM)

# Compound, Target desc, log10 IC50
rows = [
    ("O=C(O)c1cc(O)c(O)c(O)c1", "Hi-Myc prostate cancer cell line", 1.87),
    ("COc1ccc2c(c1)c(=O)oc1cc(O)ccc12", "Hi-Myc prostate cancer cell line", 2.77),
    ("O=c1oc2c(O)c(O)cc3c(=O)oc4c(O)c(O)cc1c4c23 [Ellagic acid, reference compound]", "Hi-Myc prostate cancer cell line", 0.23),
    ("O=c1oc2cc(O)ccc2c2ccccc12 [Urolithin B, 3-hydroxy-6H-dibenzo[b,d]pyran-6-one]", "Hi-Myc prostate cancer cell line", 1.78),
    ("O=C(O)c1cc(O)c(O)c(O)c1-c1c(O)c(O)c2oc(=O)c3c(-c4c(C(=O)O)cc(O)c(O)c4O)c(O)c(O)c4oc(=O)c1c2c43", "Hi-Myc prostate cancer cell line", 1.92),
]
